measured-target: T1, NRP2A peptide (biotinylated) (human, biotin-conjugated, site not stated)
T1 construct: also called NPR2A; NRP2a specific peptide
method-summary: BLI, isoform peptide on sensor, 50 nM antibody
measured-endpoint: binding result

[[record]]
binder = "aNRP2-400v2 (antibody, V domains shown, Mouse monoclonal) VH: EVQLQESGAELARPGASVKLSCKASGYTFRSYGISWVKQRTGQGLEWIGEIYPRSGNTYYDENFKGRATLTADKSSSTAFMELRSLTSEDSAVYFCARSSITAVVAIPYYYAMDYWGQGTSVTVSS VL: DIQMTQTTSSLSASLGDRVTISCSASQGISNYLNWYQQKPDGSVKLLIYYTSSLHSGVPSRFSGSGSGTDYSLTISNLEPEDIATYYCQQYSKLPHTFGGGTKLELK"
experimental_value = "binds"

[[record]]
binder = "aNRP2-401v2 (antibody, V domains shown, Mouse monoclonal) VH: EVQLQESGGGLVKPGGSLKLSCAASGFTFSDYGMHWVRQAPEKGLEWVATISRDINTVYYADTVKGRFTISRDNAKNTLFLQVTSLRSEDTAMYYCTRGGYTDYWGQGTTLTVSS VL: DIVMTQTPLSLPVSLGDQASISCRSSQSLVHSNGNTYLYWYLQRPGQSPKLLIYKVSNRFSGVPDRFSGSGSGTDFTLKISRVEAEDLGVYFCSQSTHVLTFGGGTKLEIK"
experimental_value = "binds"

[[record]]
binder = "aNRP2-407v2 (antibody, V domains shown, Mouse monoclonal) VH: EVQLQQSGPELVKPGASVTISCKASGYSFTGYYMHWVKQSHVKSLEWIGRINPYNGATSYSQNFKDKASLTIDKSSSTAYMELHSLTSEDSAVYYCAREETTAPFTYWGQGTLVTVSA VL: DIVMSQSPSSLAVSVGEKVTMSCKSSQSLLYSSNQKNYLAWYQQKPGQSPKLLIYWASTRESGVPDRFTGSGSGTDFTLTISSVQAEDLAVYFCQHYYSYPPTFGGGTKLEIK"
experimental_value = "binds"


The measurements presented in this section are drawn from patent US20240417476A1.
